This collection of values is drawn from paper PMC9352680.

log10 of Kd values by entry
- target-of-assay: T1, PUF4 RNA-binding domain (Saccharomyces cerevisiae, UniProt P25339 537-888)
- T1 sequence: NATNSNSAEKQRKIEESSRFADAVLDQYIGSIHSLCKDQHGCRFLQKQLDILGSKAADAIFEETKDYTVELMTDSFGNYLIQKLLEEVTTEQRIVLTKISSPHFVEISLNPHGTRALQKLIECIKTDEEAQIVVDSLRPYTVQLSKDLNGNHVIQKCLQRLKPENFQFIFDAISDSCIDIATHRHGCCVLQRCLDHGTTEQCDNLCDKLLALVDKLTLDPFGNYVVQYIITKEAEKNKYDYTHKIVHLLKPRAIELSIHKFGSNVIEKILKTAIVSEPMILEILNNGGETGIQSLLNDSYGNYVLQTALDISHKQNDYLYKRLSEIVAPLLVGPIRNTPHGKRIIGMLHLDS
- measurement-description: Mg; RNA-MaP; 20 mM Na-HEPES pH 7.4, 30 mM KOAc, 0.75 mM MgCl2, 0.1% Tween-20, 5% glycerol, 0.1 mg/mL BSA, 2 mM DTT; 25 C; 0.0125-409.6 nM protein
- run-conditions: tags: N-His6-TEV cleaved; C-SNAP kept, Cy3B-labelled; label: tethered on chip by stalled RNA polymerase
Heads up, the numbers here are log10 of Kd in nM units.

Use these answered entries as a reference point.
# binder, readout-label, result-value
rows = [
    ("Id_ii_S2_P3E.2_K3.1_C3.2_[T-1A]_H3.1_A3.1_F3.1_T3.2_[T9A]_[A10T] (ssRNA) RNA: UUUGAUUAAUAUGAUAUCGUUCUUUCUCAUGUAUAUAAUUUCUUUCUCGAUAUCAUAUUAAUCUUU", "log10 of Kd", 0.47),
    ("UCUCUUUGUUUUAUAAUCUCUU (ssRNA) [Ib_S1_P5E.1_K5.1_C5.1_H5.1_[A4T]_A5.1_F5.1_[T9A]_T5.1]", "log10 of Kd", 1.94),
    ("Ic_S2_P4E.1_K4.1_C4.1_H4.1_A4.1_[T5A]_[A6T]_[T7C]_F4.1_T4.1 (ssRNA) RNA: UUUGAUUAAUAUGAUAUCGUUCUUUCUUGUAAUCUAUUCUUUCUCGAUAUCAUAUUAAUCUUU", "log10 of Kd", 0.35),
    ("UCUCUUUGUAUAUUCUCUCUU (ssRNA) [Ic_S1_P4E.1_K4.1_C4.1_H4.1_A4.1_F4.1_[A9C]_T4.1]", "log10 of Kd", 0.79),
    ("Id_ii_S2_P4E.2_K4.1_C4.2_[C-2G]_[T-1C]_H4.1_A4.1_F4.1_T4.2_[G10A] (ssRNA) RNA: UUUGAUUAAUAUGAUAUCGUUCUUUCUGCUGUAUAUUAAUUUCUUUCUCGAUAUCAUAUUAAUCUUU", "log10 of Kd", -0.27),
]

Let's switch to this binder now.
Requested field: log10 of Kd. Item: Ic_S2_P5E.1_K5.1_C5.1_H5.1_A5.1_[T5C]_[T6G]_[A7T]_F5.1_[T8C]_[T9G]_[A10T]_T5.1 (ssRNA) RNA: UUUGAUUAAUAUGAUAUCGUUCUUUCUUGUACGUCGUUUCUUUCUCGAUAUCAUAUUAAUCUUU
2.32
